So I've got a bunch of compounds here, and I need their drug sensitivity score values.
System: normal primary NK cells, pool 3 (3 donors) (IL-2 2.5 ng/mL)
ASSAY_TEXT: drug sensitivity score (DSS) (DSS units); higher = more sensitive; extreme values may be limits of the assay
EXPERIMENTAL_CONDITIONS: 72 h
Give your answer as a number; write no unit.

Let me check: COc1cc(Nc2ncc3c(n2)-c2ccc(Cl)cc2C(c2c(F)cccc2OC)=NC3)ccc1C(=O)O [Alisertib] (max concentration tested 10000 nM) , system normal primary NK cells, pool 3 (3 donors) (IL-2 2.5 ng/mL), measured drug sensitivity score is 1.41

Let me check: CS(=O)(=O)CCNCc1ccc(-c2ccc3ncnc(Nc4ccc(OCc5cccc(F)c5)c(Cl)c4)c3c2)o1 [Lapatinib] (max concentration tested 1000 nM) , system normal primary NK cells, pool 3 (3 donors) (IL-2 2.5 ng/mL), measured drug sensitivity score is 0

Let me check: Cc1ccc2nc(CN(CCN(Cc3nc4ccc(C)cc4[nH]3)Cc3nc4ccc(C)cc4[nH]3)Cc3nc4ccc(C)cc4[nH]3)[nH]c2c1 (max concentration tested 50000 nM) , system normal primary NK cells, pool 3 (3 donors) (IL-2 2.5 ng/mL), measured drug sensitivity score is 2.31

Let me check: CN(C)C/C=C/C(=O)Nc1cc2c(Nc3ccc(F)c(Cl)c3)ncnc2cc1O[C@H]1CCOC1 [Afatinib] (max concentration tested 1000 nM) , system normal primary NK cells, pool 3 (3 donors) (IL-2 2.5 ng/mL), measured drug sensitivity score is 0

Let me check: Cc1cnc(NC(=O)Nc2cc(Br)c(C)cc2OC[C@@H]2CNCCO2)cn1 [Rabusertib] (max concentration tested 1000 nM) , system normal primary NK cells, pool 3 (3 donors) (IL-2 2.5 ng/mL), measured drug sensitivity score is 0

Let me check: CNC(=O)c1cc(Oc2ccc(NC(=O)Nc3cc(C(C)(C)C)nn3-c3ccc4ncccc4c3)c(F)c2)ccn1 [Rebastinib] (max concentration tested 1000 nM) , system normal primary NK cells, pool 3 (3 donors) (IL-2 2.5 ng/mL), measured drug sensitivity score is 0

Let me check: C=CC[C@@H]1/C=C(\C)C[C@H](C)C[C@H](OC)[C@H]2O[C@@](O)(C(=O)C(=O)N3CCCC[C@H]3C(=O)O[C@H](/C(C)=C/[C@@H]3CC[C@@H](O)[C@H](OC)C3)[C@H](C)[C@@H](O)CC1=O)[C@H](C)C[C@@H]2OC [Tacrolimus] (max concentration tested 10000 nM) , system normal primary NK cells, pool 3 (3 donors) (IL-2 2.5 ng/mL), measured drug sensitivity score is 0

Let me check: COc1cc(Nc2ncc(F)c(Nc3ccc4c(n3)NC(=O)C(C)(C)O4)n2)cc(OC)c1OC [Tamatinib] (max concentration tested 10000 nM) , system normal primary NK cells, pool 3 (3 donors) (IL-2 2.5 ng/mL), measured drug sensitivity score is 3.27

Let me check: COc1cc(F)c(F)c(Nc2ccc(I)cc2F)c1NS(=O)(=O)C1(C[C@H](O)CO)CC1 [Refametinib] (max concentration tested 10000 nM) , system normal primary NK cells, pool 3 (3 donors) (IL-2 2.5 ng/mL), measured drug sensitivity score is 1.74

Let me check: O=C(Nc1cccc(Cl)c1)Nc1ncc(CCNc2ncnc3ccsc23)s1 [SNS-314] (max concentration tested 1000 nM) , system normal primary NK cells, pool 3 (3 donors) (IL-2 2.5 ng/mL), measured drug sensitivity score is 0

Let me check: CCCOc1ccn2c(C(C)=O)cc(-c3ccccc3S(C)(=O)=O)c2c1 [GSK2801] (max concentration tested 10000 nM) , system normal primary NK cells, pool 3 (3 donors) (IL-2 2.5 ng/mL), measured drug sensitivity score is 0

====

So I've got a bunch of molecules here, and I need their percent inhibition of viability values.
Tested on: NKL (IL-2 2.5 ng/mL);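 note: normalised to DMSO-only wells as negative and benzethonium chloride as positive control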
ASSAY_TEXT: percent inhibition of viability; higher = more inhibition
EXPERIMENTAL_CONDITIONS: 72 h; 1000 nM
State just the number; it will be interpreted in %.

Let me check: Cc1c2oc3c(C)ccc(C(=O)N[C@@H]4C(=O)N[C@H](C(C)C)C(=O)N5CCC[C@H]5C(=O)N(C)CC(=O)N(C)[C@@H](C(C)C)C(=O)O[C@@H]4C)c3nc-2c(C(=O)N[C@@H]2C(=O)N[C@H](C(C)C)C(=O)N3CCC[C@H]3C(=O)N(C)CC(=O)N(C)[C@@H](C(C)C)C(=O)O[C@@H]2C)c(N)c1=O [Dactinomycin] (max concentration tested 1000 nM) , system NKL (IL-2 2.5 ng/mL), measured percent inhibition of viability is 110

Let me check: COc1cc2c(NC3CCN(C(C)C)CC3)nc(C3CCCCC3)nc2cc1OCCCN1CCCC1 [UNC0638] (max concentration tested 10000 nM) , system NKL (IL-2 2.5 ng/mL), measured percent inhibition of viability is 10

Let me check: CN(c1ccccc1CNc1nc(Nc2ccc3c(c2)CC(=O)N3)ncc1C(F)(F)F)S(C)(=O)=O (max concentration tested 10000 nM) , system NKL (IL-2 2.5 ng/mL), measured percent inhibition of viability is 65.6

Let me check: Cc1cnc(NC(=O)Nc2cc(Br)c(C)cc2OC[C@@H]2CNCCO2)cn1 [Rabusertib] (max concentration tested 1000 nM) , system NKL (IL-2 2.5 ng/mL), measured percent inhibition of viability is 86.2

Let me check: CCOc1cc2ncc(C#N)c(Nc3ccc(OCc4ccccn4)c(Cl)c3)c2cc1NC(=O)/C=C/CN(C)C [Neratinib] (max concentration tested 1000 nM) , system NKL (IL-2 2.5 ng/mL), measured percent inhibition of viability is 40.4

Let me check: CC1=C(/C=C/C(C)=C/C=C/C(C)=C/C(=O)O)C(C)(C)CCC1 [Tretinoin] (max concentration tested 10000 nM) , system NKL (IL-2 2.5 ng/mL), measured percent inhibition of viability is 17.5

Let me check: CNC(=O)c1cccc2cc(Oc3ccnc4cc(OCC5(N)CC5)c(OC)cc34)ccc12 [Lucitanib] (max concentration tested 10000 nM) , system NKL (IL-2 2.5 ng/mL), measured percent inhibition of viability is -3.6

Let me check: O=C(c1ccc(F)c(F)c1Nc1ccc(I)cc1F)N1CC(O)([C@@H]2CCCCN2)C1 [Cobimetinib] (max concentration tested 1000 nM) , system NKL (IL-2 2.5 ng/mL), measured percent inhibition of viability is 73.1

Let me check: CN(C)C(=O)c1cc2cnc(Nc3ccc(N4CCNCC4)cn3)nc2n1C1CCCC1 [NVP-LEE011] (max concentration tested 10000 nM) , system NKL (IL-2 2.5 ng/mL), measured percent inhibition of viability is -6.48

Let me check: C#Cc1cccc(Nc2ncnc3cc4c(cc23)OCCOCCOCCO4)c1 [Icotinib] (max concentration tested 10000 nM) , system NKL (IL-2 2.5 ng/mL), measured percent inhibition of viability is -2.73

Let me check: O=C(Nc1cccc(Cl)c1)Nc1ncc(CCNc2ncnc3ccsc23)s1 [SNS-314] (max concentration tested 1000 nM) , system NKL (IL-2 2.5 ng/mL), measured percent inhibition of viability is 42.8

====

System: KAI3 (IL-2 2.5 ng/mL)
ASSAY_TEXT: relative IC50 (inflection point of fitted viability curve, relative to fitted max inhibition); higher = less sensitive
EXPERIMENTAL_CONDITIONS: 72 h
MEASUREMENT_KIND: relative IC50 (nM)
State just the number; it will be interpreted in nM.

According to the records, this molecule COc1cc(O)c2c(c1)/C=C/C[C@H](O)[C@H](O)C(=O)/C=C\C[C@H](C)OC2=O [(5Z)-7-Oxozeaenol] displays relative IC50 of 797

According to the records, this molecule CC[C@]1(O)C[C@@H]2CN(CCc3c([nH]c4ccccc34)[C@@](C(=O)OC)(c3cc4c(cc3OC)N(C)[C@H]3[C@@](O)(C(=O)OC)[C@H](OC(C)=O)[C@]5(CC)C=CCN6CC[C@]43[C@@H]65)C2)C1 [Vinblastine] displays relative IC50 of 9.24

According to the records, this molecule COC(=O)c1ccc2c(c1)NC(=O)/C2=C(\Nc1ccc(N(C)C(=O)CN2CCN(C)CC2)cc1)c1ccccc1 [Nintedanib] displays relative IC50 of 1850

According to the records, this molecule Cc1c2oc3c(C)ccc(C(=O)N[C@@H]4C(=O)N[C@H](C(C)C)C(=O)N5CCC[C@H]5C(=O)N(C)CC(=O)N(C)[C@@H](C(C)C)C(=O)O[C@@H]4C)c3nc-2c(C(=O)N[C@@H]2C(=O)N[C@H](C(C)C)C(=O)N3CCC[C@H]3C(=O)N(C)CC(=O)N(C)[C@@H](C(C)C)C(=O)O[C@@H]2C)c(N)c1=O [Dactinomycin] displays relative IC50 of 4.77

According to the records, this molecule NCC(=O)Nc1ccc(-n2nc(C(F)(F)F)cc2-c2ccc3c(ccc4ccccc43)c2)cc1 displays relative IC50 of 4900
